- Assay target: DRD2 (D2 long receptor) (Homo sapiens)
- Sequence (P14416 whole entry): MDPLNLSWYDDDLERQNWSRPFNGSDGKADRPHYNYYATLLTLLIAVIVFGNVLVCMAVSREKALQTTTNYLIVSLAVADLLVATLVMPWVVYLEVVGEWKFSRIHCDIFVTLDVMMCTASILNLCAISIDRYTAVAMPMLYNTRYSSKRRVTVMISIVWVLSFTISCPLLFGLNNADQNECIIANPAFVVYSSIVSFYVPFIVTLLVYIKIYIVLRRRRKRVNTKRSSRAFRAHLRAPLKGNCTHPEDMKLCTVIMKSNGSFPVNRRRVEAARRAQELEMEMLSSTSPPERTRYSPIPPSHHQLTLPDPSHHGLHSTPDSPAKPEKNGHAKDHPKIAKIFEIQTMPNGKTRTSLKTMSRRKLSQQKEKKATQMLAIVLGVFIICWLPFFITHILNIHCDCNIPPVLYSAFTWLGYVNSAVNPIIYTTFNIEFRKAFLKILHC
- Method: Gαi/o-mediated cAMP inhibition (GloSensor split-luciferase cAMP reporter), HEK293T;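 note: compounds applied 15 min at room temperature, then luciferin plus 400 nM isoproterenol to raise cAMP through endogenous β2-adrenergic receptors, luminescence read 15 min later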
- Format: cell-based
- Condition set: DRD2; antagonist, Gαi/o-mediated cAMP inhibition; read-out: EC50 ± SEM (antagonist)
Measured metric: EC50 (µM)
One number for each entry, in µM.

Any idea what EC50 came out for CCCCN(C)C(C)C(=O)Nc1cc([N+](=O)[O-])ccc1OC (stereo not shown) on DRD2 (D2 long receptor) (Homo sapiens)?
3.55

----------
- Assay target: DRD2 F1103.28L (Homo sapiens, UniProt P14416, F110L)
- Construct: expressed in transfected cells; host or cells: HEK293T (ATCC CRL-11268)
- Sequence (P14416 whole entry F110L): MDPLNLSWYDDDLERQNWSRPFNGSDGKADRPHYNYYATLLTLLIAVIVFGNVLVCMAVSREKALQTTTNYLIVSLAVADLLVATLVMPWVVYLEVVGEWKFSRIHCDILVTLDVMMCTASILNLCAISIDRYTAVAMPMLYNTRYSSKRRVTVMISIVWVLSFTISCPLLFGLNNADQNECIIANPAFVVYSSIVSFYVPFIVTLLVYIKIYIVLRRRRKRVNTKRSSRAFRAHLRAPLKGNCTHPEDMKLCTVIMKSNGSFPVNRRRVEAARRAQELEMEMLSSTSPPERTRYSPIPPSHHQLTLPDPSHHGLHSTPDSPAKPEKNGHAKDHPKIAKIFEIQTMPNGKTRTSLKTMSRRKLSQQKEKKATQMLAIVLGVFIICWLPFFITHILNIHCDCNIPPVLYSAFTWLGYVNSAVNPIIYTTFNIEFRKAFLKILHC
- Method: Gαi/o-mediated cAMP inhibition (GloSensor), mutant
- Type: cell-based
- Condition set: read-out: Emax relative to quinpirole response, DRD2 F1103.28L
Please provide measured Emax for the entries that follow.
Answers are plain numbers, in %.

Take a look at these entries with their results.
# Molecule, Emax [%]
rows = [
    ("CCOc1cccc2cc(C(C)NCC3(O)CCCCC3)oc12 (stereo not shown) [O4LE6]", 61),
    ("CCOc1cccc2cc([C@@H](C)NCC3(O)CCCCC3)oc12 [O4RE6]", 56.4),
    ("CCOc1cccc2cc(C(C)NCC3(O)CCCCCC3)oc12 (stereo not shown) [O4LE7]", 72.6),
]

Now for another entry.
Returns the measured Emax for the input molecule. Input: CCOc1cccc2cc(C(C)NCC3(O)CCCCCCC3)oc12 (stereo not shown) [O4LE8]
79.4
